test system: CCRIS mutagenicity, Ames/micronucleus/aberration tests; experiment: CCRIS mutagenicity studies; details: Test System: AMES SALMONELLA TYPHIMURIUM; Strain/Indicator: TA100; Metabolic Activation: RAT, LIVER, S-9, 3-METHYLCHOLANTHRENE; Method: STANDARD PLATE
Active and inactive are the calls of the source. No rule for the calls is given here.

compound	mutagenic call
O=[N+]([O-])c1cc2[nH]c3cc([N+](=O)[O-])c4ccccc4c3c2c2ccccc12	active; positive
c1ccc2cc3cc4ccccc4cc3cc2c1	active; positive
O=[N+]([O-])c1cc2[nH]c3ccc4ccccc4c3c2c2ccccc12	inactive; negative
O=C1NC(=O)C(c2ccccc2)(c2ccc(O)cc2)N1 (centres undefined)	inactive; negative
